# measurement_protocol: Cell viability (CellTiter-Glo), HeLa-ACE2 cells
# Format: cell-based
# particulars: human, read-out: half-cytotoxic concentration (CC50)
observable: CC50 (µM)

# compound, observable, endpoint_result
measured = [
    ("O=C(Nc1cc(Cl)cc(Cl)c1O)c1c(O)c(Cl)cc(Cl)c1Cl [Oxyclozanide, oxyclozanide]", "CC50", 18.7),
    ("CCN(CC)Cc1cc(Nc2ccnc3cc(Cl)ccc23)ccc1O", "CC50", 34.7),
    ("CCN(CC)CCCC(C)Nc1c2ccc(Cl)cc2nc2ccc(OC)cc12 (centres unmarked)", "CC50", 1.7),
    ("CCN(CC)CCCC(C)Nc1ccnc2cc(Cl)ccc12 (centres unmarked)", "CC50", 25.7),
    ("O=C(Nc1ccc([N+](=O)[O-])cc1Cl)c1cc(Cl)ccc1O [niclosamide]", "CC50", 0.4),
]

---

# Tested on: SARS-CoV-2 PsV (wild-type S protein)
# measurement_protocol: microbe, parasite or virus in culture
# Type: cell-based
# particulars: Severe acute respiratory syndrome coronavirus 2, HeLa-ACE2, read-out: IC50, inhibition of PsV entry, HeLa-ACE2 (-TMPRSS2), wild-type S PsV
# IC50 per record follows

# compound, target_or_test_system, cmp, IC50 [µM]
measured = [
    ("CCN(CC)CCCC(C)Nc1c2ccc(Cl)cc2nc2ccc(OC)cc12 (stereo not shown)", "SARS-CoV-2 PsV (wild-type S protein)", "=", 0.9),
    ("CN(C)C(=O)COC(=O)Cc1ccc(OC(=O)c2ccc(NC(=N)N)cc2)cc1", "SARS-CoV-2 PsV (wild-type S protein)", ">", 200),
    ("CCN(CC)Cc1cc(Nc2ccnc3cc(Cl)ccc23)ccc1O", "SARS-CoV-2 PsV (wild-type S protein)", "=", 2.5),
    ("CCN(CC)CCCC(C)Nc1ccnc2cc(Cl)ccc12 (stereo not shown)", "SARS-CoV-2 PsV (wild-type S protein)", "=", 2.6),
]

---

# Tested on: SARS-CoV-2 PsV (wild-type S protein)
# measurement_protocol: microbe, parasite or virus in culture
# Assay type: cell-based
# particulars: Severe acute respiratory syndrome coronavirus 2; Vero-TMPRSS2 (+TMPRSS2), WT PsV; read-out: IC50, inhibition of PsV entry
pIC50: −log10 of the molar value.
observable: pIC50

# molecule, observable, endpoint_result
records = [
    ("CN(C)C(=O)COC(=O)Cc1ccc(OC(=O)c2ccc(NC(=N)N)cc2)cc1", "pIC50", 6.60),
    ("CO/C1=C\\C(C)=C\\[C@@H](C)[C@@H](O)[C@@H](C)C/C(C)=C/C=C/[C@H](OC)[C@@H]([C@@H](C)[C@@H](O)[C@H](C)[C@@]2(O)C[C@@H](O)[C@H](C)[C@@H](C(C)C)O2)OC1=O", "pIC50", 8.02),
]

---

# Tested on: endosomal acidification in Vero cells
# measurement_protocol: cells
# Format: cell-based
# particulars: Vero cells, 40 μM, singlet (n=1)
observable: Percent Inhibition (%) of endosomal acidification

# sequence_data, value_units, endpoint_result
data = [
    ("ABAMECTIN (avermectin B1a shown)", "%", 59),
    ("MEPARTRICIN", "%", 52),
    ("BENZALKONIUM CHLORIDE", "%", 88),
    ("BITHIONATE SODIUM", "%", 67),
    ("CHLOROPHYLLIDE Cu COMPLEX Na SALT", "%", 77),
]

---

# Test system: authentic SARS-CoV-2 (SARS-CoV-2/Canada/ON/VIDO-01/2020/Vero'76/p2)
# measurement_protocol: microbe, parasite or virus in culture
# Type: cell-based
# particulars: Severe acute respiratory syndrome coronavirus 2, Vero 76, read-out: IC50, authentic SARS-CoV-2
observable: IC50 (nM)

# molecule, target_or_test_system, cmp, endpoint_result
rows = [
    ("CN(C)C(=O)COC(=O)Cc1ccc(OC(=O)c2ccc(NC(=N)N)cc2)cc1", "authentic SARS-CoV-2 (SARS-CoV-2/Canada/ON/VIDO-01/2020/Vero'76/p2)", ">", 100000),
    ("CO/C1=C\\C(C)=C\\[C@@H](C)[C@@H](O)[C@@H](C)C/C(C)=C/C=C/[C@H](OC)[C@@H]([C@@H](C)[C@@H](O)[C@H](C)[C@@]2(O)C[C@@H](O)[C@H](C)[C@@H](C(C)C)O2)OC1=O", "authentic SARS-CoV-2 (SARS-CoV-2/Canada/ON/VIDO-01/2020/Vero'76/p2)", "=", 9),
]

---

# System: authentic SARS-CoV-2 (SARS-CoV-2/Canada/ON/VIDO-01/2020/Vero'76/p2)
# measurement_protocol: microbe, parasite or virus in culture
# Type: cell-based
# particulars: Severe acute respiratory syndrome coronavirus 2, read-out: IC50, authentic SARS-CoV-2
Property: IC50; scope: individual molecules
observable: IC50 (nM)

# molecule, value_units, endpoint_result
measured = [
    ("CN(C)C(=O)COC(=O)Cc1ccc(OC(=O)c2ccc(NC(=N)N)cc2)cc1", "nM", 38),
    ("CO/C1=C\\C(C)=C\\[C@@H](C)[C@@H](O)[C@@H](C)C/C(C)=C/C=C/[C@H](OC)[C@@H]([C@@H](C)[C@@H](O)[C@H](C)[C@@]2(O)C[C@@H](O)[C@H](C)[C@@H](C(C)C)O2)OC1=O", "nM", 0.4),
]
